- target-system: T1, biotinylated recombinant cynomolgus monkey trimeric ARG2 enzyme (Avi-cynoARG2-His10) (cynomolgus monkey, UniProt P78540 23-354 (human entry), biotinylated)
- T1 construct: also called cynomolgus ARG2
- T1 chain: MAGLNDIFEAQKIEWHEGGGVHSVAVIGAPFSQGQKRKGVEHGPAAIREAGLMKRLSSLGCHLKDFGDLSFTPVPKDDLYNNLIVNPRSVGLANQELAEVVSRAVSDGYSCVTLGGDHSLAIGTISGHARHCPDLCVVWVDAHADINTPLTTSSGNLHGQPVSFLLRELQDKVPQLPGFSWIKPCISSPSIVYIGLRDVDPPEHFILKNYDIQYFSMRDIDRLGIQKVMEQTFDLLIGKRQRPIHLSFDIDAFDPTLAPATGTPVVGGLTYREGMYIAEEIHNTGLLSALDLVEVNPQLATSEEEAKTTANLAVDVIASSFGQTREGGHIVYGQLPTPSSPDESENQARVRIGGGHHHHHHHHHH
- assay-remarks: BLI (OctetRED), biotinylated cyno ARG2 on streptavidin, Fab as analyte
measured-endpoint: kon (M⁻¹ s⁻¹)
Give just the numeric value; M⁻¹ s⁻¹ need not be written.

Ask: What does the data say about its kon? Entry: C0021092 Fab (Fab, V domains shown, Human Fab) VH: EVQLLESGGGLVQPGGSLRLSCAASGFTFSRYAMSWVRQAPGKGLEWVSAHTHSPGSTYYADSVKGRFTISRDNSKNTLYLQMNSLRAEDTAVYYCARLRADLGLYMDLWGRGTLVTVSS VL: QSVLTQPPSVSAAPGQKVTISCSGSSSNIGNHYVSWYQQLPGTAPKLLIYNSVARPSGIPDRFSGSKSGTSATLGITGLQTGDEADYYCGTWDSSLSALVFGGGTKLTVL
Result: 354000
